# ASSAY DETAILS: Inhibition of Akt Ser473 phosphorylation in human MDA-MB-468 cells after 2 hrs
# Format: cell-based
# EXPERIMENTAL CONTEXT: MDA-MB-468, 2 h

{"MOL": "CS(=O)(=O)Cc1cc(N2CCOCC2)nc(-c2ccc3[nH]ccc3c2)n1", "UNIT TEXT": "µM", "RELATIONAL OPERATOR": "=", "IC50": 5.7}
{"MOL": "O=S(=O)(Cc1cc(N2CCOCC2)nc(-c2ccccn2)n1)c1ccccc1", "UNIT TEXT": "µM", "RELATIONAL OPERATOR": "=", "IC50": 9.2}
{"MOL": "CS(=O)(=O)Cc1cc(N2CCOCC2)nc(-c2ccc(NS(C)(=O)=O)cc2)n1", "UNIT TEXT": "µM", "RELATIONAL OPERATOR": ">", "IC50": 20}
{"MOL": "CS(=O)(=O)Cc1cc(N2CCOCC2)nc(-c2cccc3[nH]ccc23)n1", "UNIT TEXT": "µM", "RELATIONAL OPERATOR": "=", "IC50": 6.3}
{"MOL": "CC(C)S(=O)(=O)Cc1cc(N2CCOCC2)nc(-c2ccccn2)n1", "UNIT TEXT": "µM", "RELATIONAL OPERATOR": ">", "IC50": 30}
{"MOL": "O=S(=O)(Cc1cc(N2CCOCC2)nc(-c2ccccn2)n1)c1ccc(F)cc1", "UNIT TEXT": "µM", "RELATIONAL OPERATOR": "=", "IC50": 12.4}
{"MOL": "O=S(=O)(CCc1cnccn1)Cc1cc(N2CCOCC2)nc(-c2ccccn2)n1", "UNIT TEXT": "µM", "RELATIONAL OPERATOR": ">", "IC50": 80}
{"MOL": "CS(=O)(=O)Cc1cc(N2CCOCC2)nc(-c2cccc(CO)c2)n1", "UNIT TEXT": "µM", "RELATIONAL OPERATOR": "=", "IC50": 3.4}
{"MOL": "CS(=O)(=O)Cc1cc(N2CCOCC2)nc(-c2cnc3[nH]ccc3c2)n1", "UNIT TEXT": "µM", "RELATIONAL OPERATOR": "=", "IC50": 1.03}
{"MOL": "CS(=O)(=O)Cc1cc(N2CCOCC2)nc(-c2ccccc2)n1", "UNIT TEXT": "µM", "RELATIONAL OPERATOR": ">", "IC50": 30}
